System: SR leukemia
ASSAY EXPLANATION: NCI tumour cell line growth inhibition, 48 h; in the data active = GI50 below about 0.43 µM; inactive = the rest
Select the correct class. Options are TRUE for active, FALSE for inactive and nothing else.

Test call for this compound, please: CCCN1C(=O)N(CCC)C2C1NC(=S)N2/N=C/C=C/c1ccccc1OC (stereo not given)
TRUE

Test call for this compound, please: COc1ccc(-c2nc3ccc(-c4nc5ccc(N6CCN(c7ccccc7)CC6)cc5[nH]4)cc3[nH]2)cc1OC
TRUE

Test call for this compound, please: Cc1ccc(NC(=O)CC2CC2)cc1-c1ccc(C(=O)NCC2CC2)cc1
FALSE

Test call for this compound, please: CCOC(=O)C(Cc1ccc(CCCC(=O)NCCC(=O)Nc2ccc3nc(C)sc3c2)cc1)C(=O)OCC
FALSE

Test call for this compound, please: Cc1ncc(C(=O)Nc2ccc(CN3CCN(C)CC3)c(C(F)(F)F)c2)cc1C#Cc1cnc(N)c2ccncc12
FALSE
